B1: TPR t1 (parent)
chain: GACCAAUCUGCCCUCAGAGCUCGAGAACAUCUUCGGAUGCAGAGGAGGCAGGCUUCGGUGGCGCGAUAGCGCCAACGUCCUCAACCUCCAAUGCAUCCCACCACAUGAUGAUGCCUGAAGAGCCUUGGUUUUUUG

variants of: B1; assay: polymerase ribozyme fitness, log enrichment relative to wild type (log ratio); higher = more active; in vitro selection for triplet polymerase activity
Mark t for reported polymerase ribozyme fitness (log ratio) of -3 or greater; mark f for anything smaller.

Use the examples below as a reference point.
C12U C28G    t
C20G C56U C82A G113C    t
A43C C123A    t
C49A U133A    t
C3U G77A C94G    t

stdin: Identify whether the reported polymerase ribozyme fitness (log ratio) of the following variant is -3 or greater: U7G C22G G117U U130C
stdout: t

stdin: Identify whether the reported polymerase ribozyme fitness (log ratio) of the following variant is -3 or greater: G51U G60U G69C C73G
stdout: f

stdin: Identify whether the reported polymerase ribozyme fitness (log ratio) of the following variant is -3 or greater: G48C G52U G60A U109A G110U
stdout: f
